# test description: Plasma concentration of WQ1001 (HM 910) and its metabolite CPT in rats after intravenous injection
# Assay type: in vivo
# condition context: both sexes, Sprague-Dawley (SD), rat, plasma, iv, 20 mg/kg, 20 mg/kg HM 910 i.v. bolus, 1 hr, mean of rats
property: concentration at 1 h (ng/mL)
# output: bare number, implied unit ng/mL

Q: Fill in the blank: the reported concentration at 1 h of `CC[C@@]1(O[PH](=O)[O-])C(=O)OCc2c1cc1n(c2=O)Cc2cc3ccccc3nc2-1.[Na+]` is ____.
Result: 360

---

# test description: Plasma concentration of WQ1001 (HM 910) and its metabolite CPT in rats after intravenous injection
# Assay type: in vivo
# condition context: both sexes, Sprague-Dawley (SD), rat, plasma, iv, 20 mg/kg, 20 mg/kg HM 910 i.v. bolus, 1.5 hr, mean of rats
property: concentration at 1.5 h

Q: Fill blank: measured concentration at 1.5 h of the compound `CC[C@@]1(O[PH](=O)[O-])C(=O)OCc2c1cc1n(c2=O)Cc2cc3ccccc3nc2-1.[Na+]` is ____.
Result: 89.6 ng/mL

---

# test description: Plasma concentration of WQ1001 (HM 910) and its metabolite CPT in rats after intravenous injection
# Assay type: in vivo
# condition context: both sexes, Sprague-Dawley (SD), rat, plasma, iv, 20 mg/kg, 20 mg/kg HM 910 i.v. bolus, 0.75 hr, mean of rats
property: concentration at 0.75 h (ng/mL)
Write down the numeric answer in ng/mL and omit the unit.

Q: Quick one: concentration at 0.75 h for `CC[C@@]1(O[PH](=O)[O-])C(=O)OCc2c1cc1n(c2=O)Cc2cc3ccccc3nc2-1.[Na+]` ?
Result: 806

Data credit: patent US20160375042A1
